Target: rM4 receptors (Rattus norvegicus, UniProt P08485)
Sequence (P08485 1-478): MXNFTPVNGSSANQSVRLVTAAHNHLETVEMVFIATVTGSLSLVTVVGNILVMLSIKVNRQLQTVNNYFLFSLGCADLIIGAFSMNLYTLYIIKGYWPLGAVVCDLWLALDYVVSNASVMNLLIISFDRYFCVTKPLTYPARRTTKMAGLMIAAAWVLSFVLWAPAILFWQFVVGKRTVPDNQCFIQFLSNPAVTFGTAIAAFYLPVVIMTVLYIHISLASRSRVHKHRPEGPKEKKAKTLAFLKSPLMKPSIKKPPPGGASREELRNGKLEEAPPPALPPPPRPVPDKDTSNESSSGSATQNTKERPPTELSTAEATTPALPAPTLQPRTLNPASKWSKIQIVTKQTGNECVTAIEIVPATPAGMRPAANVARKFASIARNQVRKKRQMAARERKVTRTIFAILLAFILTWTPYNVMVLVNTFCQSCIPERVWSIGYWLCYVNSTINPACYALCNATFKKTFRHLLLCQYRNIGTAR
Assay: Rat M4 PAM pERK assay
Conditions: CHO cells expressing rM4; EC20 of acetylcholine (10 nM final); TR-FRET
Listed here are compounds together with their documented EC50.
property.label: EC50

compound: COc1nc(C)nc2c1CN(C(=O)CC1CN(c3ccnc(C(F)(F)F)c3)C1)C2C (racemic) [Compound I-61]
result: 500 to 2000 nM
//
compound: COc1nc(C#N)nc2c1CN(C(=O)CC1CN(c3ccnc(C(F)(F)F)c3)C1)C2
result: 500 to 2000 nM
//
compound: COc1nc(C#N)nc2c1C(C)N(C(=O)CC1CN(c3cccc(C(F)(F)F)c3)C1)C2 (single isomer, unassigned) [Compound I-15]
result: ≥ 2000 nM
//
compound: COc1nc(C2COC2)nc2c1CN(C(=O)CC1CN(c3ccnc(C(F)(F)F)c3)C1)C2
result: ≥ 2000 nM
//
compound: COc1nc(C)nc2c1C(C)N(C(=O)CC1CN(c3cccc(C#N)c3)C1)C2 (single isomer, unassigned) [Compound I-54]
result: ≥ 2000 nM
//
compound: Cc1nc2c(c(OC3CC3)n1)CN(C(=O)CC1CN(c3cccnc3)C1)C2
result: ≥ 2000 nM
//
compound: COc1nc(C#N)nc2c1C(C)N(C(=O)CC1CN(c3ccc(C#N)cc3)C1)C2 (single isomer, unassigned)
result: 100 to 500 nM
//
compound: COc1nc(Cl)nc2c1CN(C(=O)CC1CN(c3ccnc(C(F)(F)F)c3)C1)C2
result: 500 to 2000 nM
//
compound: COc1nc(C)nc2c1C(C)N(C(=O)CC1CN(c3ccc(C#N)cc3)C1)C2 (single isomer, unassigned) [Compound I-56]
result: 100 to 500 nM
//
compound: CNc1nc(C)nc2c1CN(C(=O)CC1CN(c3cccnc3)C1)C2
result: ≥ 2000 nM
//
compound: COc1nc(C#N)nc2c1C(C)N(C(=O)CC1CN(c3cccc(F)c3F)C1)C2 (single isomer, unassigned) [Compound I-19]
result: 100 to 500 nM
//
compound: COc1nc(C)nc2c1C(C)N(C(=O)CC1CN(c3cncnc3)C1)C2 (single isomer, unassigned) [Compound I-59]
result: 500 to 2000 nM
//
compound: Cc1nc2c(c(NC3CC3)n1)CN(C(=O)CC1CN(c3cccnc3)C1)C2
result: ≥ 2000 nM
//
compound: COc1nc(C#N)nc2c1C(C)N(C(=O)CC1C(C)N(c3ccnc(C(F)(F)F)c3)C1C)C2 (stereo not drawn)
result: 100 to 500 nM
//
compound: COc1nc(C#N)nc2c1C(C)N(C(=O)CC1CN(c3ccnc(C(F)(F)F)c3)C1)C2 (single isomer, unassigned) [Compound I-5]
result: ≥ 2000 nM
